Test system: O. ochengi males
assay info: microbe, parasite or virus in culture
Parameters: species or system Onchocerca ochengi
condition set: SI = CC50 on Caco-2/LC50 on worm
Excerpt: The adult male worms were isolated as previously describe by Ndjonka et al. from fresh pieces of cattle skin (cow-udder) with palpable nodules obtained from the communal slaughter house of Ngaoundere in the Adamawa region of Cameroon. Nodules removed from the skin were brought to the laboratory, washed, drained and sterilized with 70% ethanol for dissection. After dissection of nodules, O. ochengi were extracted, isolated and washed three times in sterile phosphate-buffered saline (PBS). […]
Measured Selectivity Index (SI) O. ochengi Males, listed per entry for reference.
I only need the number, thanks.

Reference set (6 entries):
c1ccc([C@H]2CN3CCSC3=N2)cc1 [Levamisole, reference compound] : 27.3
O=C(OC1Cc2c(O)cc(O)cc2OC1c1ccc(O)c(O)c1)c1cc(O)c(O)c(O)c1 (single isomer, unassigned; (-)) [ECG, (−)-epicatechin-3-O-gallate] : 32.2
O=C(O[C@H]1Cc2c(O)cc(O)cc2O[C@@H]1c1ccc(O)c(O)c1)c1cc(O)c(O)c(O)c1 [CG, (+)-catechin-3-O-gallate] : 8.7
Oc1cc(O)c2c(c1)O[C@H](c1cc(O)c(O)c(O)c1)[C@H](O)C2 [EGC, (−)-epigallocatechin] : 22.4
Oc1cc(O)c2c(c1)O[C@H](c1cc(O)c(O)c(O)c1)[C@@H](O)C2 [GC, (+)-gallocatechin] : 15.9
O=C(OC1Cc2c(O)cc(O)cc2OC1c1cc(O)c(O)c(O)c1)c1cc(O)c(O)c(O)c1 (single isomer, unassigned; (-)) [EGCG, (−)-epigallocatechin-3-O-gallate] : 50.8

Pending compound:
Suppose we examine the compound CCCSc1ccc2nc(NC(=O)OC)[nH]c2c1 [Albendazole, reference compound] ; what Selectivity Index (SI) O. ochengi Males value has been reported? 7
